Test system: E. coli O157: H7 (ATCC 43888)
assay.overview: microbe, parasite or virus in culture
Assay type: cell-based, Escherichia coli O157: H7
experimental.setup: strain ATCC 43888; colony count <= 10 on blood agar; mean ± S.D., triplicate in two independent experiments
Ends that are not written are not given here.
# label = YES if MBC < 10 µM else NO

Known results for substances:
substance: EWGRRMMGWRPGRRMMRWWR-NH2 [Ib-M2]
classification: YES
//
substance: EWGRRMMGWRPGRRMMRRWW-NH2 [Ib-M5]
classification: NO
//
substance: EWGRRMMGWGRGRRMMRRWW-NH2 [Ib-M6]
classification: NO
//
substance: EWGRRMMGRGPGRRMMRRWW-NH2 [Ib-M4]
classification: NO

Field: below-cutoff. Rule: recorded MBC strictly less than 10 µM. Subject: EWGRRMMGRGPGRRMMRWWR-NH2 [Ib-M1]
YES
